Sourced from the supplement of paper PMC12764529

What folding stability dG unfold was measured for each of the following?
Test: folding stability dG unfold from chymotrypsin proteolysis; higher = more stable
Answers are plain numbers, in kcal/mol.

Some solved entries appear below for comparison.
Seq	folding stability dG unfold (kcal/mol)
SAGGSAGGSAMPERRAAEAAAAPPPVPKVVITSPGSEEEARRIEEELRAAPGVEEVTVTVVPRLSAGGSAGG [r6_285_JUSTAS]	0.804
SATIEIPIKVNDRKFRISIERMPDGWIKIQIRDPNMPKDAVKDALREILGPGWKIDTDPETNTIYIPFKSAG [r14_370_TrROS]	2.77
SAGGEVKPGDKVKVRLRLRVRLEDGEEVEVELEFVEVEVVPLSEEEKEKLEELKKKKPEVDPKNKELLSAGG [r13_330_TrROS_Hall]	2.24
SWMFMIEVHDPKNGKERTVPINMPKEQVLDQIREAQEKGPRIEIWGIPPNAIKEIAEEAKLPVEIHPMPPSA [r9_1207_TrROS]	0.409
SAGGSAGGSMSPSESVTLTVVVEEITPGTPKVLLPEEVKEKYPNFEVQVKVEGKPATVTITRPSAGGSAGGS [r12_900_JUSTAS]	0.444

The following sequences each have a reported value; give each one's folding stability dG unfold.
1. SAGGSAGGSAGKETITITLVVTDENGEKYLIRVEAKIDPKTNKITITKIEIIRLDDLKKLSAGGSAGGSAGG [r11_777_TrROS_Hall]
2. SAGGSAGGGMVKVTLRITYYNSTGPYTSDRVFELPPDEVEALIEAIPPPPDATPEVEVEREPLGSAGGSAGG [r6_428_JUSTAS]
3. SAGGMIEKIKEAAKKLGLKVKIEEVKFDKKTKKVTIKITLENGKKIEITVEMSEEELLNAIKELIKKSAGGS [r16_153_TrROS_Hall]
4. SAGGPPIKKIEITKIHPGKGIIQVSIKLPGDGHPIMVRAEIDDPEPGKIKIEIQDPNNGQPQEITIKFSAGG [r13_337_TrROS]
5. SAGGSAGGSKKIKIKVKVKNPKTKKYYEIEIEISEEELKEGKLTKEQIKKELEKLGYEVEIVPSAGGSAGGS [r20_221_TrROS_Hall]
6. SAGGSAGGSDPSEVRLTFTVTVELTFDAVLFYEPGTGRLVAVAPYLRVEVEVEVTLTFPADALSAGGSAGGS [r12_600_TrMRF]
7. SAGGSAGGMFVPEGKTVTVKLPGNETVTVKVKAGNSRPFDSLEEIEAFAAQPGFDIEVSSSPAKSAGGSAGG [r6_433_JUSTAS]
8. SAGGSAGGSGVEITLPNKDELIEYLKKKFAEKGGKIKKIKIEPIGPNMYKALIETDPNDPYFKSAGGSAGGS [r12_647_TrMRF]

1: 1.72; 2: 1.53; 3: 3.62; 4: 0.683; 5: 2.6; 6: 5.04; 7: 0.0627; 8: 0.532

Need folding stability dG unfold of SAGGSAGGSAGDEKYTLTVTIPVPKNAPVLVGAEKGYEVIDLNPDAPVEEGYITVKVEFGSAGGSAGGSAGG [r11_701_TrMRF] , thanks.
-0.833
